- Target Entity: T1, hPRLR.mFc (soluble dimeric human PRLR) (human)
- T1 construct: dimeric PRLR construct
- T1 chain: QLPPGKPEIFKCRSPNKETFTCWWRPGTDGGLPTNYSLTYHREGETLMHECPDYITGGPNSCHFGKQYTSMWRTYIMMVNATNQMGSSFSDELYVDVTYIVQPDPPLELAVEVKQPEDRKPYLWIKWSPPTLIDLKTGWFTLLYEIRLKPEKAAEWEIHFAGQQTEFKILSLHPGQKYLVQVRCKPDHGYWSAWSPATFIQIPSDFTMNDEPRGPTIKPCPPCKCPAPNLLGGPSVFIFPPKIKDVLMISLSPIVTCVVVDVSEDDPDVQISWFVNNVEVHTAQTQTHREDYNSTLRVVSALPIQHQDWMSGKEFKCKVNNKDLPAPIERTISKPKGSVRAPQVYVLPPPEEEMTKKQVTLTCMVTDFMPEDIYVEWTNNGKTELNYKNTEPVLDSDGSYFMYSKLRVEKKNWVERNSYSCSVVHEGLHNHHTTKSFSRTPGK
- Method: SPR Biacore, 25 C, mAb capture
Reported Property: kon (M⁻¹ s⁻¹)

H1H6976N (antibody, human IgG1, V domains shown, Tested with human IgG1 Fc (H1H); also called H2M6976N) VH: EVQLLESGGGFVQPGGSLRLSCAASGFTFSSYAMSWVRQAPGKGLEWVSIISSNGRYTYYADSVKGRFTISRDNSKNTLYLQMNSLRAEDTAVYYCATVTGDWFDPWGQGTLVTVSS VL: DIQLTQSPSFLSASVGDRVTITCWASQDIDISLAWYQQKPGKAPKLLIYAASTLQSGVPSKFSGSGSGTDFTLTISSLQPEDFSTYYCQQLNSYPITFGQGTRLDIK: 1.12e+06
H1H6975N (antibody, human IgG1, V domains shown, Tested with human IgG1 Fc (H1H); also called H2M6975N) VH: EVHLVESGGGLVQPGGSLRLSCAASGFTFSSYEMNWVRQTPGKGLEWISHISSRSVIIYYADSVKGRFTISRDNAKNSLFLQMNSLRAEDTAVYFCAGITIFGIPEYWGQGTLVTVSS VL: EIVLTQSPATLSLSPGERATLSCRASQSVSSYFAWYQQKPGQAPRLLIYDASSRATGIPTRFSGSGSGTDFTLTISSLEPEDFAVYYCQQRSSWPITFGQGTRLEIK: 287000
H1H6792P (antibody, human IgG1, V domains shown, Human IgG1 Fc (H1H)) VH: EVQLVESGGGLVQPGRSLRLSCAASGFTLDDHAVHWVRQAPGKGLEWVSGISWNSVYIDYADSVKGRFTIFRDNAKNSLYLQMNSLRAEDTAFYYCARDIEGARDYWGQGTLVTVSS VL: DIQMTQSPSSLSASVGDRVTITCRASQGIRNDLGWYQQKPGKAPKRLIYAASSLQSGVPSRFSGSGYGTEFTLTISSLQPEDFAPYYCLQHNSYPLTFGGGTKVEIK: 303000
H1H6774P (antibody, human IgG1, V domains shown, Human IgG1 Fc (H1H)) VH: EVQLVESGGGLAQPGGSLRLSCVASGFTFSTYWMSWVRQAPGKGLDWVGNIKQDGSEQNYVDSVRGRFTISRDNAKNSLFLQMNSLRAEDTGVYYCATLLTKGDYWGQGTLVTVSS VL: DIQMTQSPSSLSASVGDSVTITCRASQDISNYLDWFQQKPGKAPKSLIYAASILQGGVPSRFSGSGYGTDFTLTISSLQPEDFATYYCRQYKTYPFTFGPGTKVDIK: 798000

Where do these numbers come from? They come from patent US20180185504A1.
